Measured log10 of IC50 of individual entries
Assay Target: von Hippel-Lindau disease tumor suppressor (Homo sapiens, UniProt P40337)
Sequence (P40337 whole entry): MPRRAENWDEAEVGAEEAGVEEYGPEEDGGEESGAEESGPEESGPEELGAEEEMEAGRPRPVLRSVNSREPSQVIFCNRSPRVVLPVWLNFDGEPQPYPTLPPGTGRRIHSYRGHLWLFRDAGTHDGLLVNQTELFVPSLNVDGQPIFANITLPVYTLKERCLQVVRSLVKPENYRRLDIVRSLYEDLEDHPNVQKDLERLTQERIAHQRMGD
Experimental Protocol: VHL HEK-293 BRET Assay
Property: log10 of IC50 (log10 of the value in nM)

{"Compound": "Cc1ncsc1-c1ccc(CNC(=O)[C@@H]2C[C@@H](O)CN2C(=O)[C@@H](n2cc(Cc3ccccc3)nn2)C(C)(C)C)cc1", "Property": "log10 of IC50", "Endpoint Result": 1.30}
{"Compound": "Cc1ncsc1-c1ccc(C(C)NC(=O)C2C[C@@H](O)CN2C(=O)[C@H](C2C3CC4CC(C3)CC2C4)n2cc(C3CC3)nn2)c(Cl)c1 (stereo partly drawn)", "Property": "log10 of IC50", "Endpoint Result": 1.30}
{"Compound": "CC(C)(C)[C@@H](C(=O)N1C[C@H](O)CC1C(=O)N[C@H](Cc1ccc(-c2ccccc2)cc1)C(N)=O)n1cc(C2CC2)nn1 (stereo partly drawn)", "Property": "log10 of IC50", "Endpoint Result": 2.18}
{"Compound": "CC(=O)NCCOCc1cn([C@H](C(=O)N2C[C@H](O)CC2C(=O)N[C@H](Cc2ccc(-c3ccccc3)cc2)C(N)=O)C(C)(C)C)nn1 (stereo partly drawn)", "Property": "log10 of IC50", "Endpoint Result": 4.32}
{"Compound": "CCC(C)(C)[C@@H](C(=O)N1C[C@H](O)CC1C(=O)N[C@H](Cc1ccc(-c2ccccc2)cc1)C(N)=O)n1cc(C2CC2)nn1 (stereo partly drawn)", "Property": "log10 of IC50", "Endpoint Result": 2.00}
{"Compound": "C=CC(C)(C)[C@@H](C(=O)N1C[C@H](O)CC1C(=O)N[C@H](Cc1ccc(-c2ccccc2)cc1)C(N)=O)n1cc(C2CC2)nn1 (stereo partly drawn)", "Property": "log10 of IC50", "Endpoint Result": 2.04}
{"Compound": "Cc1ncsc1-c1ccc(CNC(=O)[C@@H]2C[C@@H](O)CN2C(=O)[C@@H](n2cc(C3CC3)nn2)C(C)(C)C)cc1", "Property": "log10 of IC50", "Endpoint Result": 1.00}
{"Compound": "Cc1ncsc1-c1ccc(CNC(=O)C2C[C@H](O)CN2C(=O)[C@@H](n2cc(C3(c4cn([C@H](C(=O)N5C[C@H](O)C[C@H]5C(=O)NCc5ccc(-c6scnc6C)cc5)C(C)(C)C)nn4)CC3)nn2)C(C)(C)C)cc1 (stereo partly drawn)", "Property": "log10 of IC50", "Endpoint Result": 2.49}
{"Compound": "CCC(C)[C@@H](C(=O)N1C[C@H](O)CC1C(=O)N[C@H](Cc1ccc(-c2ccccc2)cc1)C(N)=O)n1cc(C2CC2)nn1 (stereo partly drawn)", "Property": "log10 of IC50", "Endpoint Result": 2.11}
{"Compound": "COC(=O)c1nnn([C@@H](C(=O)N2C[C@H](O)C[C@H]2C(=O)N[C@H](Cc2ccc(-c3ccccc3)cc2)C(N)=O)C(C)C)c1C", "Property": "log10 of IC50", "Endpoint Result": 3.21}
{"Compound": "CC(C)[C@@H](C(=O)N1C[C@H](O)C[C@H]1C(=O)N[C@H](Cc1ccc(-c2ccccc2)cc1)C(N)=O)n1nnc2ccccc21", "Property": "log10 of IC50", "Endpoint Result": 2.48}
{"Compound": "Cc1ncsc1-c1ccc2c(c1)CCCC[C@H]2NC(=O)[C@@H]1C[C@@H](O)CN1C(=O)[C@@H](n1cc(C2CC2)nn1)C(C)(C)C", "Property": "log10 of IC50", "Endpoint Result": 2.30}
